Data provenance: ChEMBL document CHEMBL3507680

Task for the reader: assign each of the following compounds its reported cytotoxicity at 70.5 h.
- Measurement protocol: Human HepG2 cell viability assay in 384 well format
- Type: toxicity, cell-based
- Set-up: dose 125 nL, time 70.5 hour; concentration not given beside the values
- Assay context: HepG2 cells, read-out: Inhibition
Units required after the number.

Please look at the items below and tell me cytotoxicity at 70.5 h for each one, in order.
1. Cc1cnc(N2CCC3(CCCCN3C)C2)nc1 (stereo not drawn)
2. O=C(NCCNC(=O)N1CCC(c2ccccc2)C1)C1CC1 (stereo not drawn)

-7.87%
-6.87%

Request the reported cytotoxicity at 70.5 h associated with CC(C)c1nc(C2CCCN(Cc3nnc(C4CC4)o3)C2)no1 (stereo not drawn)
-8.01%
